Biological target: T1, human NMI (N-myc Interacting protein), recombinant protein (human, UniProt Q13287 1-307, limits assumed)
T1 construct: Gene ID: 9111; also called hNMI; antigen
T1 sequence (looked up): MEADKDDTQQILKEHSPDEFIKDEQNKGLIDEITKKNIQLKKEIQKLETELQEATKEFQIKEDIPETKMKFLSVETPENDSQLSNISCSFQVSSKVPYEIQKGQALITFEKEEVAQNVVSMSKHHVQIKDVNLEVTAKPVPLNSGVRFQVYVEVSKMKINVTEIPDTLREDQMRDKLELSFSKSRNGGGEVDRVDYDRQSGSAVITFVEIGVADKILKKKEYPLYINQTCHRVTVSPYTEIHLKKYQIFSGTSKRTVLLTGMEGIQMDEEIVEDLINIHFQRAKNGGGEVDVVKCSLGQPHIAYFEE
Test: sandwich ELISA; detection 94C4-1-biotin 1µg/mL; hNMI 97.656 pg/mL
readoutType: OD450 (OD450)
Your answer is read as OD450, so omit the unit and give the number.

Given the binder monoclonal antibody B-8 (antibody, V domains shown, Rabbit monoclonal antibody; also called B8-1) VH: QSLEESGGDLVKPGASLTLTCTASGFSFSSSYYMCWVRQAPGKGLEWIACIYAGSSGSTYYASWAKGRFTISKTSSTTVTLQMTSLTAADTATYFCAREYSYDDYGDFWGFNLWGPGTLVTVSS VL: ALVMTQTPSSVSAAVGGTVTINCQASQNIYTNLAWYQQKPGQPPKLLIYGASNLESGVPSRFKGSGSGTEYTLTISDLECDDAATYYCQSSLYSRIADRANAFGGGTEVVVK , what is its reported OD450?
0.15

Values compiled from patent EP4682166A1.
